The values you see were collected from paper PMC12297955.

Assay: Plasma steady-state concentration by HPLC and volume of distribution
Conditions: female, Wistar, rat, oral, 300 mg/kg/day, Average plasma concentration (steady state), rats, oral daily dosing 5 weeks, HPLC, metformin 300 mg/kg/day, S 150 mg/kg/day, mean ± SD

chem-smiles: CN(C)C(=N)N=C(N)N
concentration at 5 weeks, ng/mL: 5320

###

Experiment: Plasma steady-state concentration by HPLC and volume of distribution
Conditions: female, Wistar, rat, oral, 300 mg/kg/day, Plasma concentration, range, rats, oral daily dosing 5 weeks, HPLC, metformin 300 mg/kg/day, S 150 mg/kg/day
experimental-readout: concentration at 5 weeks

chem-smiles: CN(C)C(=N)N=C(N)N
result: 3170 to 7540 ng/mL
